biological target: UniProt:Q72874
IC50 listing for selected compounds.
Provide only the numeric value, understood in nM.

Reference set, count: 2
CC(C)(C)NC(=O)[C@@H]1C[C@H](OCc2ccccc2)CN1CC(O)CNC(=O)[C@@H]1N[C@@H](C(NC(=O)Cc2ccccc2)C(=O)NCc2ccccc2)SC1(C)C (stereo partly drawn): 650
CC(C)(C)NC(=O)[C@@H]1C[C@@H](O)CN1CC(O)CNC(=O)[C@@H]1N[C@@H](C(NC(=O)Cc2ccccc2)C(=O)NCc2ccccc2)SC1(C)C (stereo partly drawn): 5100

Here is the next item to consider.
Given CC(C)(C)NC(=O)[C@@H]1C[C@@H]2CCCC[C@@H]2CN1C[C@@H](O)CNC(=O)[C@@H]1N[C@@H](C(NC(=O)Cc2ccccc2)C(N)=O)SC1(C)C (stereo partly drawn) , state its recorded IC50.
23

###

test system: MT4; assay: Compound was tested for effective concentration against MT-4 cell line; type: functional, cell-based; settings: Homo sapiens
Attribute Measured: EC50 (nM)
Return type: number; implicit unit nM.

CC(C)(C)NC(=O)[C@@H]1C[C@@H]2CCCC[C@@H]2CN1CC(O)CNC(=O)[C@@H]1N[C@@H](C(NC(=O)Cc2ccccc2)C(=O)NCCNC(=O)CCCC[C@@H]2SC[C@@H]3NC(=O)N[C@@H]32)SC1(C)C (stereo partly drawn): 18000
CC(C)(C)NC(=O)[C@@H]1C[C@@H]2CCCC[C@@H]2CN1C[C@@H](O)CNC(=O)[C@@H]1N[C@@H](C(NC(=O)Cc2ccccc2)C(N)=O)SC1(C)C (stereo partly drawn): 590

Now for a further molecule.
May I ask what EC50 has been recorded for CC(C)(C)NC(=O)[C@@H]1C[C@@H]2CCCC[C@@H]2CN1CC(O)CNC(=O)[C@@H]1N[C@@H](C(NC(=O)Cc2ccccc2)C(=O)NCCNC(=O)OC(C)(C)C)SC1(C)C (stereo partly drawn) ?
52

###

Here the recorded pEC50 is given for each entry.
tested on: MT4; test: Compound was tested for effective concentration against MT-4 cell line; type: functional, cell-based; settings: Homo sapiens
Hey, just a heads up that pEC50 is the negative log base 10 of the concentration in molar.

Use these answered entries as a reference point.
COC(=O)C(NC(=O)Cc1ccccc1)[C@@H]1N[C@@H](C(=O)NC[C@H](O)CN2C[C@H]3CCCC[C@H]3C[C@H]2C(=O)NC(C)(C)C)C(C)(C)S1 (stereo partly drawn): 5.41
CC(C)(C)NC(=O)[C@@H]1C[C@@H]2CCCC[C@@H]2CN1C[C@@H](O)CNC(=O)[C@@H]1N[C@@H](C(NC(=O)Cc2ccccc2)C(=O)NCc2ccccc2)SC1(C)C (stereo partly drawn): 6.46

Now for a further compound.
What measured pEC50 goes with CC(C)(C)NC(=O)[C@@H]1C[C@@H]2CCCC[C@@H]2CN1C[C@H](O)CNC(=O)[C@@H]1N[C@@H](C(NC(=O)Cc2ccccc2)C(=O)NCc2ccccc2)SC1(C)C (stereo partly drawn) ?
4.87

###

The compounds below have reported log10 IC50 for Human immunodeficiency virus type 1 protease (Human immunodeficiency virus 1).
// stored as log10 of IC50 expressed in nM

Check out these entries, answers already filled in.
CC(C)(C)NC(=O)[C@@H]1C[C@@H]2CCCC[C@@H]2CN1C[C@@H](O)CNC(=O)[C@@H]1N[C@@H](C(NC(=O)Cc2ccccc2)C(=O)NCc2ccccc2)SC1(C)C (stereo partly specified): 1.36
CC(C)(C)NC(=O)[C@H]1N(CC(O)CNC(=O)[C@@H]2N[C@@H]([C@H](NC(=O)Cc3ccccc3)C(=O)NCc3ccccc3)SC2(C)C)CSC1(C)C (stereo partly specified): 1.32
C[C@@H](C(=O)NC(C)(C)C)N(CC(O)CNC(=O)[C@@H]1N[C@@H](C(NC(=O)Cc2ccccc2)C(=O)NCc2ccccc2)SC1(C)C)CC1CCCCC1 (stereo partly specified): 3.81
CC(C)(C)NC(=O)[C@@H]1CCCN1CC(O)CNC(=O)[C@@H]1N[C@@H](C(NC(=O)Cc2ccccc2)C(=O)NCc2ccccc2)SC1(C)C (stereo partly specified): 3.18

# next compound below
Give its log10 IC50 value. Item: CC(C)(C)NC(=O)C1N(C[C@H](O)CNC(=O)[C@@H]2N[C@@H](C(NC(=O)Cc3ccccc3)C(=O)NCc3ccccc3)SC2(C)C)C(C)(C)SC1(C)C (stereo partly specified)
1.97
